# assay_target: CaNbp2
# experiment_notes: SPOT peptide array binding signal intensity (averaged, normalized) (arbitrary units (background-subtracted, floor 0; scale differs between SH3 domains)); higher = stronger binding of the SH3 domain to the peptide
Listing of entries alongside the reported SPOT peptide array binding signal intensity.
Answer as a number with no unit attached.

These solved cases illustrate the format of a correct answer.
- binder: "RRASLFPRDPKRLRP"
  meas_value: 464
- binder: "TKFRISLGLPVGAIM"
  meas_value: 498
- binder: "RSVKRPRRAPRPVVS"
  meas_value: 1160
- binder: "KDKSRPPRPPPKPLH"
  meas_value: 88.5

Now let's try a different one.
Item: "NRLRKRLNLPSEISI" | SPOT peptide array binding signal intensity: 286
